system: HCV 1b genotype; test: HCV Replicon assay (HCV 1b genotype); format: cell-based, Hepatitis C virus; details: Hepatitis C virus; HCV 1b genotype replicon; class symbol; read-out: Range (EC50 values against HCV 1b)
readoutKind: EC50

Solved cases below.
{"columns": ["compound", "result"],
 "data": [
  ["COC(=O)N[C@H](C(=O)N1C[C@@H](C)C[C@H]1c1nc(Cl)c(-c2ccc(C#Cc3ccc(-c4[nH]c([C@@H]5C[C@H](C)CN5C(=O)[C@@H](NC(=O)OC)C5CCOCC5)nc4Cl)cc3)cc2)[nH]1)C1CCOCC1 [Example M12.7]", "0.002 to 0.099 nM"],
  ["O=C([C@H](O)c1ccccc1)N1CCC[C@H]1c1nc(-c2ccc(COCc3ccc(-c4cnc([C@@H]5CCCN5C(=O)[C@H](O)c5ccccc5)[nH]4)cc3)cc2)c[nH]1 [OL-15]", "1 to 9.9 nM"],
  ["COC(=O)N[C@H](C(=O)N1[C@@H]2C[C@@H]2C[C@H]1c1ncc(-c2cccc(C#Cc3cccc(-c4cnc([C@@H]5C[C@H]6C[C@H]6N5C(=O)[C@@H](NC(=O)OC)C(C)C)[nH]4)c3)c2)[nH]1)C(C)C [Example J3]", "0.002 to 0.099 nM"]
]}

Here is another compound to look at.
[ask] Requested field: EC50. Item: COC(=O)N[C@H](C(=O)N1[C@@H]2C[C@@H]2C[C@H]1c1nc(-c2ccc([C@@H]3C[C@H]3c3ccc(-c4c[nH]c([C@@H]5C[C@H]6C[C@H]6N5C(=O)[C@@H](NC(=O)OC)C(C)C)n4)cc3)cc2)c[nH]1)C(C)C [m9.5]
[reply] 0.002 to 0.099 nM
